// data source = patent US20230102554A1

Target: Human PDGFRα, cytoplasmic domain (GST-PDGFRα) (Homo sapiens, UniProt P16234)
Sequence (P16234 550-1089 T674I): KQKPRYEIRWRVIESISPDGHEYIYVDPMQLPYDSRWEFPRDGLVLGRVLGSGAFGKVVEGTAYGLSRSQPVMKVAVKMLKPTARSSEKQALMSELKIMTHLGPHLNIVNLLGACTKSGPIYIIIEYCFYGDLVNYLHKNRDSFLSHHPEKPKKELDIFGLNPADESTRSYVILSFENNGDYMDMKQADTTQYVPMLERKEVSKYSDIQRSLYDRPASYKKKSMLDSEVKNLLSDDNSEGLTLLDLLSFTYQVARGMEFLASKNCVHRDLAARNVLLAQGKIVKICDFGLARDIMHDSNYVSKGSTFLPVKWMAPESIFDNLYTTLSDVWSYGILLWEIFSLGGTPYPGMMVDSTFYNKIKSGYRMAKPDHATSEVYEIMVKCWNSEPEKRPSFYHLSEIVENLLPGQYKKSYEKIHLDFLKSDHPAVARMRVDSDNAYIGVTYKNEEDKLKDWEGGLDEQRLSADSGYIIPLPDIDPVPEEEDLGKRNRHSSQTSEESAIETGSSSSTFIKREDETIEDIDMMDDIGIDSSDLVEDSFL
Experiment: Human PDGFRα biochemical inhibition assay (off-chip Mobility Shift Assay)
METRIC: IC50

Lab note: each molecule below needs its IC50 filled in.
1. CSc1ncc(C(=O)Nc2cccc([C@H](C)Nc3cnc4cnn(C)c4n3)c2)cc1C
2. CCn1cc2ncc(N[C@@H](C)c3cc(NC(=O)c4cnc(N5CCN(C)CC5)c(C)c4)ccc3C)nc2n1
3. CCc1ncc(C(=O)Nc2cccc([C@H](C)Nc3cnc4cnn(C)c4n3)c2)cc1C
4. CCOc1ncc(C(=O)Nc2ccc(F)c([C@H](C)Nc3cnc4cn(CC)nc4n3)c2)cc1C
5. Cc1cncc(NC(=O)c2cccc([C@H](C)Nc3cnc4cnn(C)c4n3)c2)c1
6. CCn1cc2ncc(N[C@@H](C)c3cccc(NC(=O)Cc4ccc5c(n4)CCCC5)c3)nc2n1
7. CCn1cc2ncc(N[C@@H](C)c3cccc(NC(=O)c4ccc(N(C)C)c(C)c4)c3)nc2n1
8. C[C@H](Nc1cnc2cnn(C)c2n1)c1cccc(NC(=O)c2ccc3c(c2)SCCN3)c1

1: < 300 nM; 2: < 300 nM; 3: < 300 nM; 4: < 300 nM; 5: < 300 nM; 6: < 300 nM; 7: < 300 nM; 8: < 300 nM

###

Answer each item with its documented pIC50.
Biological target: Human PDGFRα, cytoplasmic domain (GST-PDGFRα) (Homo sapiens, UniProt P16234)
Experiment: Human PDGFRα biochemical inhibition assay (off-chip Mobility Shift Assay)
pIC50: −log10 of the molar value.

Worked cases, pIC50 given:
{"MOLECULE": "Cc1cncc(C(=O)Nc2cccc([C@H](C)Nc3cnc4ncccc4n3)c2)c1", "METRIC": "pIC50", "ENDPOINT_VALUE": "6.00 to 6.52"}
{"MOLECULE": "CCn1cc2ncc(N[C@@H](C)c3cc(NC(=O)Cc4cncc(C(F)(F)F)c4)ccc3F)nc2n1", "METRIC": "pIC50", "ENDPOINT_VALUE": "> 6.52"}
{"MOLECULE": "CCn1cc2ncc(N[C@@H](C)c3cccc(NC(=O)c4ccc(C(F)F)s4)c3)nc2n1", "METRIC": "pIC50", "ENDPOINT_VALUE": "> 6.52"}

With those in mind, consider the next compound.
Given item Cc1cc(C(=O)Nc2cccc([C@H](C)Nc3cnc4cnn(C)c4n3)c2)ccc1CN1CCSCC1 , the value recorded as its pIC50 is > 6.52

###

pIC50: −log10 of the molar value.
Let's go through some pIC50 measurements on Human PDGFRβ, cytoplasmic domain (GST-PDGFRβ) (Homo sapiens, UniProt P09619) together.
Sequence (P09619 with tags, fused parts or gaps): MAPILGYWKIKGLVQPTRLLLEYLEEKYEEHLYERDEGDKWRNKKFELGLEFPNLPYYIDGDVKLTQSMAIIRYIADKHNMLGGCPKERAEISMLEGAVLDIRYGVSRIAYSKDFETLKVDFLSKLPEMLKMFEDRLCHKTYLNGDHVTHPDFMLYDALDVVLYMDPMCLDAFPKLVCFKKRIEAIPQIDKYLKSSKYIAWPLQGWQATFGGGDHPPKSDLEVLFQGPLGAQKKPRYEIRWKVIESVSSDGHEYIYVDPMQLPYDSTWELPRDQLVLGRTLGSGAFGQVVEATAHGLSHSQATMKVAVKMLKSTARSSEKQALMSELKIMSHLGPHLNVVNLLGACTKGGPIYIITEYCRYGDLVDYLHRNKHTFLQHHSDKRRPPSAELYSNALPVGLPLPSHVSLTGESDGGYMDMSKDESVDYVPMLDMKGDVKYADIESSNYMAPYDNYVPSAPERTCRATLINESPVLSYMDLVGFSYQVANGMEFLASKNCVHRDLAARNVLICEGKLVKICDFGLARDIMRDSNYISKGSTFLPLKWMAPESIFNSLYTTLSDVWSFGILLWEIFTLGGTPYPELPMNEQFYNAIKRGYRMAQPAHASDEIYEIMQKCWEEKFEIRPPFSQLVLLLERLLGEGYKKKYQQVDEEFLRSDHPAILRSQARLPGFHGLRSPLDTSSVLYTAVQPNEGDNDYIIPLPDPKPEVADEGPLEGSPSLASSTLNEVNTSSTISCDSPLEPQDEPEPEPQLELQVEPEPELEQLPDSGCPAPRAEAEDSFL

Consider the worked cases shown below.
{"COMPOUND": "CCn1cc2ncc(N[C@@H](C)c3cccc(NC(=O)c4cnc(NC5CC5)c(C)c4)c3)nc2n1 [Compound 352]", "pIC50": "6.00 to 6.52"}
{"COMPOUND": "CCn1cc2ncc(N[C@@H](C)c3cc(NC(=O)Cc4cnc(C)c(F)c4)ccc3C)nc2n1 [Compound 707]", "pIC50": "6.00 to 6.52"}
{"COMPOUND": "CCn1cc2ncc(N[C@@H](C)c3cc(NC(=O)Cc4ccc(F)c(CN5CCN(C)CC5)n4)ccc3C)nc2n1 [Compound 726]", "pIC50": "6.00 to 6.52"}

Provide pIC50 values for the following items, in order.
1. Cc1cncc(C(=O)Nc2cccc([C@H](C)Nc3cnc4cnn(-c5cnn(C)c5)c4n3)c2)c1 [Compound 186]
2. CCn1cc2ncc(N[C@@H](C)c3cccc(NC(=O)c4ccc(C5CC5)nc4)c3)nc2n1 [Compound 283]

["> 6.52", "> 6.52"]

Dear reader, for each entry below, please note its pIC50.
1. CCn1cc2ncc(N[C@@H](C)c3cccc(NC(=O)c4ccc(N5CCCC5)c(Cl)c4)c3)nc2n1 [Compound 389]
2. Cc1cc(C(=O)Nc2cccc([C@H](C)Nc3cnc4[nH]cc(-c5cnn(C)c5)c4n3)c2)cnc1C(F)(F)F [Compound 576]
3. Cc1ncc(C(=O)Nc2cccc([C@H](C)Nc3cnc4[nH]cc(-c5cnn(C)c5)c4n3)c2)s1 [Compound 583]
4. Cc1n[nH]c2ncc(N[C@@H](C)c3cccc(NC(=O)c4cncc(Cl)c4)c3)nc12 [Compound 533]

> 6.52
> 6.52
> 6.52
> 6.52
